Data credit: patent EP4696714A1

Please provide measured EC50 for the entries that follow.
tested-target: T1, TF on the surface of tumor cells (MDA-MB-231, HPAF-II, HCC1806, BxPC3, HCC44, PC9, H1975 and other … (UniProt P13726 33-295, limits assumed))
T1 construct: whole, on cells; the cell lines are human tumour lines; also called TF on cell surface; tumor cell surface TF
assay: flow cytometry on MDA-MB-231 cells, PE-labeled secondary antibody
Answer with a number only, understood to be in µg/mL.

Input: What value of EC50 has been recorded for this entry: F1-A01-FC1 (chimeric nanobody: F1-A01 VHH fused with human Fc mutant fragment FC1) (Fc fusion, it is built from the VHH and FC1 as in 4-A02-FC1) EVQLVESGGGLVQAGGSLRLSCAASGRAFSAYAMGWFRQAPGKEREFVAAISWSGGSTYYADSVRGRFTISRDNTKNTVYLQMNSLKPEDTAVYYCNADSLLSLLDGSRGGPGTDSGSWGQGTQVTVSSEPKSSDKTHTCPPCPAPEFEGGPSVFLFPPKPKDTLMISRTPEVTCVVVDVSHEDPEVKFNWYVDGVEVHNAKTKPREEQYNSTYRVVSVLTVLHQDWLNGKEYKCKVSNKALPASIEKTISKAKGQPREPQVYTLPPSRDELTKNQVSLTCLVKGFYPSDIAVEWESNGQPENNYKTTPPVLDSDGSFFLYSKLTVDKSRWQQGNVFSCSVMHEALHNHYTQKSLSLSPGK
Output: 0.75

Input: What value of EC50 has been recorded for this entry: 4-C05-FC1 (chimeric nanobody: 4-C05 VHH fused with human Fc mutant fragment FC1) (Fc fusion, built from the VHH and FC1) QVQLVESGGGLVQPGGSLRLSCAASGFTLDTYAIGWIRQAPGKEREGVSCISSTDGSTYYAASVKGRFTINRDNAKNTVYLQMNSLKPEDTAVYYCAAGPGTDCPLRFDYWGQGIQVTVSSEPKSSDKTHTCPPCPAPEFEGGPSVFLFPPKPKDTLMISRTPEVTCVVVDVSHEDPEVKFNWYVDGVEVHNAKTKPREEQYNSTYRVVSVLTVLHQDWLNGKEYKCKVSNKALPASIEKTISKAKGQPREPQVYTLPPSRDELTKNQVSLTCLVKGFYPSDIAVEWESNGQPENNYKTTPPVLDSDGSFFLYSKLTVDKSRWQQGNVFSCSVMHEALHNHYTQKSLSLSPGK
Output: 0.7

Input: What value of EC50 has been recorded for this entry: 5-H3-FC1 (chimeric nanobody: 5-H3 VHH fused with human Fc mutant fragment FC1) (Fc fusion, built from the VHH and FC1) QVQLVESGGGLVQPGGSLRLSCVASGFTLANYAIGFYRRAPGKGREGVSCISRSDGDTYHVDSVKGRFTVSRDNAKNTAYLQMNSLVPEDTGVYYCRATEWCGVQDPHGYWGQGTQVTVSSEPKSSDKTHTCPPCPAPEFEGGPSVFLFPPKPKDTLMISRTPEVTCVVVDVSHEDPEVKFNWYVDGVEVHNAKTKPREEQYNSTYRVVSVLTVLHQDWLNGKEYKCKVSNKALPASIEKTISKAKGQPREPQVYTLPPSRDELTKNQVSLTCLVKGFYPSDIAVEWESNGQPENNYKTTPPVLDSDGSFFLYSKLTVDKSRWQQGNVFSCSVMHEALHNHYTQKSLSLSPGK
Output: 0.25

Input: What value of EC50 has been recorded for this entry: 4-A02-FC1 (chimeric nanobody: 4-A02 VHH fused with human Fc mutant fragment FC1) (Fc fusion, VHH-Fc fusion expressed in HEK293; also called chimeric antibody 4-A02) QVQLVESGGGLVQPGGSLSLSCTASETISSTYIMGWHRRSPGKERELVAVISGDGVTHYADFVKGRFVISRDNAKNAVYLKMNFLTPEDTAVYYCYAAGRWNHWGQGTQVTVSSEPKSSDKTHTCPPCPAPEFEGGPSVFLFPPKPKDTLMISRTPEVTCVVVDVSHEDPEVKFNWYVDGVEVHNAKTKPREEQYNSTYRVVSVLTVLHQDWLNGKEYKCKVSNKALPASIEKTISKAKGQPREPQVYTLPPSRDELTKNQVSLTCLVKGFYPSDIAVEWESNGQPENNYKTTPPVLDSDGSFFLYSKLTVDKSRWQQGNVFSCSVMHEALHNHYTQKSLSLSPGK
Output: 0.08

Input: What value of EC50 has been recorded for this entry: 5-C12-FC1 (chimeric nanobody: 5-C12 VHH fused with human Fc mutant fragment FC1) (Fc fusion, built from the VHH and FC1) QVQLVESGGGLAQAGGSLRLSCAGSGRTFSTDAMGWFRQAPGKEREFVAAINWSGGSTYYADSVKGRFTISRDNAKNTVYLQMNSVKPEDTAVYYCVADSLLALLDGSRGGPGTDSDSWGQGTQVTVSSEPKSSDKTHTCPPCPAPEFEGGPSVFLFPPKPKDTLMISRTPEVTCVVVDVSHEDPEVKFNWYVDGVEVHNAKTKPREEQYNSTYRVVSVLTVLHQDWLNGKEYKCKVSNKALPASIEKTISKAKGQPREPQVYTLPPSRDELTKNQVSLTCLVKGFYPSDIAVEWESNGQPENNYKTTPPVLDSDGSFFLYSKLTVDKSRWQQGNVFSCSVMHEALHNHYTQKSLSLSPGK
Output: 0.47
